# System: UACC-257 melanoma
# method_description: NCI tumour cell line growth inhibition, 48 h
The following compounds are shown together with reported TGI values.

compound	target_system	TGI
c1ccc(-c2cc(-c3cc(-c4ccccc4)n[nH]3)[nH]n2)cc1	UACC-257 melanoma	> 100 µM
O=C(N/N=C/c1ccc(O)cc1O)c1ccc(Nc2ccnc(C(F)(F)F)c2)cc1	UACC-257 melanoma	> 100 µM
Cn1c(=O)c2[nH]c(COCc3nc4c([nH]3)c(=O)n(C)c(=O)n4C)nc2n(C)c1=O	UACC-257 melanoma	> 100 µM
O=C1NC2(O)c3ccccc3C(=O)C2(O)N1c1ccccc1 (stereo not given)	UACC-257 melanoma	> 100 µM
CC(=O)/C=C/c1c[nH]c(=O)[nH]c1=O	UACC-257 melanoma	641 µM
